assay: binders of probe aFSTL3 on microarray, primary screen, stem cell growth factor project, biochemical, small-molecule microarray, fluorescence 635/667 (AID 1064); details: higher = more signal;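 note: measures binding of the biotinylated anti-FSTL3 antibody to printed compounds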
Is composite z-score at least 0.3? Then 1.0. If not, 0.0.

COCCCNC(=O)[C@@H]1c2ccccc2C(=O)N(Cc2cc(C(F)(F)F)cc(C(F)(F)F)c2)[C@H]1c1ccc(CO)cc1 : 0.0
CCC[C@@H]1C=C(C(=O)OCC)[C@H](c2ccccc2)N1S(=O)(=O)c1ccc(C)cc1 : 1.0
COc1ccc([Si](C)(C)[C@@H]2[C@@H](CC(=O)N(CCO)Cc3ccccc3)O[C@]3(C(=O)N(Cc4ccc(N5CCC5=O)cc4)c4ccccc43)[C@H]2C)cc1 : 0.0
[N-]=[N+]=NCc1ccccc1C[C@]1(C(=O)N2CCOCC2)N=C(c2ccc(OCCCO)cc2)O[C@H]1c1ccccc1CN=[N+]=[N-] : 1.0
C=CC[C@]1(C(=O)NCCCOC)N=C(c2ccc(OCCCO)cc2)O[C@H]1c1ccccc1 : 0.0
COCCn1c(C(=O)N2CCCC2)cc2c1C[C@H]1CN(C(=O)c3ccccc3)[C@@](Cc3ccccc3)(C(=O)OC)[C@@H]21 : 0.0
CCCC[C@H]1OB(O)C[C@H]2C1=C(COC)C[C@H]1C(=O)C=CC(=O)[C@H]12 : 0.0
C[N+](C)(C)CCCCCCNC(=O)[C@H]1C[C@H]2C(=O)NCC(=O)N2[C@H]1c1cccc(OCCO)c1 : 0.0
COCCOC(=O)N1C(=O)[C@@]2(c3cc(C#CCC(C(=O)OC)C(=O)OC)ccc31)[C@H](C(=O)N1CCCCCCC1)[C@H]1C(=O)O[C@H](c3ccccc3)[C@H](c3ccccc3)N1[C@@H]2c1ccccc1OCCO : 1.0
CC(C)CNC(=O)[C@@]1(C)c2ccccc2C(=O)N(Cc2cc(F)cc(C(F)(F)F)c2)[C@H]1c1ccc(CO)cc1 : 0.0
COC(=O)C1=CC(CCCO)=CC(c2ccc(CN3CCCC3)cc2)N(Cc2sc3ccccc3c2Cl)C=C1C(=O)OC (stereo not given) : 1.0
C#CCN=C(N)N : 0.0
COc1ccc([Si](C)(C)[C@H]2[C@H](CCn3cc([C@H](O)c4ccccc4)nn3)O[C@@]3(C(=O)N(c4ccccc4)c4ccccc43)[C@@H]2C)cc1 : 0.0
CC(C)CNC(=O)[C@@H]1c2ccccc2C(=O)N(CC23CC4CC(CC(C4)C2)C3)[C@H]1c1ccc(CO)cc1 : 0.0
C=C(COC)C(=O)CC[C@@H](OC(C)=O)c1ccc(OCCO)cc1 : 0.0

Cited source for all entries: PubChem BioAssay
